Test: Oral bioavailability in Sprague-Dawley rat plasma at 2 mg/kg administered as gastric bolus dose by LC-MS/MS analysis
Assay type: ADME, organism-based
PARAMETER: bioavailability (%)
Respond numerically; units are % and should not be typed.

Below are worked cases with known answers.
CNS(=O)(=O)c1ccc(OC(F)(F)F)c(Nc2cc(Nc3ccc(Cl)cn3)ncn2)c1; 67
CNS(=O)(=O)c1cccc(Nc2cc(Nc3ccc(Cl)cc3)ncn2)c1; 100
CNS(=O)(=O)c1ccc(N(C)C)c(Nc2cc(Nc3ccc(Cl)cc3)ncn2)c1; 30

Please give the measured bioavailability for this compound: CNS(=O)(=O)c1cccc(Nc2cc(Nc3cccc(Br)c3)ncn2)c1
33

Please give the measured bioavailability for this compound: CNS(=O)(=O)c1cccc(Nc2cc(Nc3cccc(Cl)c3)ncn2)c1
20

Please give the measured bioavailability for this compound: CNS(=O)(=O)c1ccc(Cl)c(Nc2cc(Nc3ccc(Cl)cc3)ncn2)c1
55

----------
System: Blood
Assay: Drug uptake in mouse blood at 100 mg/kg/day administered through diet
Type: ADME, organism-based
Settings: in vivo, read-out: Drug uptake
PARAMETER: concentration

Please give the measured concentration for this compound: CCS(=O)(=O)c1ccc(S(=O)(=O)NC)cc1Nc1cc(Nc2ccc(Cl)cn2)ncn1
400 to 1600 nM

----------
Target: Serine/threonine-protein kinase TNNI3K (Homo sapiens)
Assay: Inhibition of 5-({[2-({[3-({4-[(5-hydroxy-2-methylphenyl)amino]-2-pyrimidinyl}amino)phenyl]carbonyl}amino)-ethyl]amino}carbonyl)-2-(6-hydroxy-3-oxo-3H-xanthen-9-yl)benzoic acid binding to human full length His/MBP-fused TNNI3K expressed in baculovirus expression system after 60 mins by fluorescence polarization assay
Please respond with satisfied when measured IC50 is strictly beneath 0.08 µM, and with not satisfied in all other cases.

CNS(=O)(=O)c1ccc(S(=O)(=O)C(C)(C)C)c(Nc2cc(Nc3ccc(Cl)cn3)ncn2)c1; satisfied
CNS(=O)(=O)c1cccc(Nc2cc(Nc3ccccc3C)ncn2)c1; not satisfied

Does this compound meet the criterion IC50 < 0.08 µM? CNS(=O)(=O)c1cccc(Nc2ncnc(Nc3ccc(Cl)cc3)n2)c1
satisfied

Does this compound meet the criterion IC50 < 0.08 µM? CNS(=O)(=O)c1cccc(N(C)c2cc(Nc3cccc(C)c3)ncn2)c1
not satisfied

Does this compound meet the criterion IC50 < 0.08 µM? CNS(=O)(=O)c1cccc(Nc2cc(Nc3ccccc3F)ncn2)c1
not satisfied

Does this compound meet the criterion IC50 < 0.08 µM? CNS(=O)(=O)c1cccc(Nc2cc(Nc3ccc(C(F)(F)F)cn3)ncn2)c1
satisfied

Does this compound meet the criterion IC50 < 0.08 µM? CCS(=O)(=O)c1ccc(S(=O)(=O)NC)cc1Nc1cc(Nc2ccc(Cl)cn2)ncn1
satisfied

Does this compound meet the criterion IC50 < 0.08 µM? CNS(=O)(=O)c1ccc(OC)c(Nc2cc(Nc3ccc(Cl)cn3)ncn2)c1
satisfied

Does this compound meet the criterion IC50 < 0.08 µM? CNS(=O)(=O)c1cccc(Nc2ccnc(Nc3cccc(C)c3)c2)c1
not satisfied

Does this compound meet the criterion IC50 < 0.08 µM? CNS(=O)(=O)c1cccc(Nc2ccnc(Nc3cccc(C)c3)n2)c1
not satisfied

Does this compound meet the criterion IC50 < 0.08 µM? CNS(=O)(=O)c1cccc(Nc2cc(Nc3ccc(OC)cc3)ncn2)c1
not satisfied

Does this compound meet the criterion IC50 < 0.08 µM? CNS(=O)(=O)c1ccc(OCC(F)(F)F)c(Nc2cc(Nc3ccc(Cl)cn3)ncn2)c1
satisfied

Does this compound meet the criterion IC50 < 0.08 µM? CNS(=O)(=O)c1cccc(Nc2cc(Nc3ccccc3OC)ncn2)c1
not satisfied

Does this compound meet the criterion IC50 < 0.08 µM? CNS(=O)(=O)c1cccc(Nc2cc(Nc3cccc(S(C)(=O)=O)c3)ncn2)c1
not satisfied

Does this compound meet the criterion IC50 < 0.08 µM? CNS(=O)(=O)c1cccc(Nc2cc(N(C)c3cccc(C)c3)ncn2)c1
not satisfied

Does this compound meet the criterion IC50 < 0.08 µM? CNS(=O)(=O)c1ccc(S(=O)(=O)C(C)C)c(Nc2cc(Nc3ccc(Cl)cn3)ncn2)c1
satisfied

----------
Assay: Oral bioavailability in Sprague-Dawley rat plasma at 2 mg/kg administered as gastric bolus dose by LC-MS/MS analysis
Format: ADME, organism-based
PARAMETER: bioavailability
Please give the number followed by its unit.

Below are worked cases with known answers.
CNS(=O)(=O)c1ccc(OC)c(Nc2cc(Nc3ccc(Cl)cc3)ncn2)c1; 100%
CNS(=O)(=O)c1cccc(Nc2cc(Nc3ccc(Cl)cn3)ncn2)c1; 65%

Please give the measured bioavailability for this molecule: CNS(=O)(=O)c1ccc(OC(F)(F)F)c(Nc2cc(Nc3ccc(Cl)cc3)ncn2)c1
84%

Please give the measured bioavailability for this molecule: CCS(=O)(=O)c1ccc(S(=O)(=O)NC)cc1Nc1cc(Nc2ccc(Cl)cn2)ncn1
48%

Please give the measured bioavailability for this molecule: CNS(=O)(=O)c1cccc(Nc2cc(Nc3cccc(C)c3)ncn2)c1
19%

----------
Assay: Clearance in Sprague-Dawley rat plasma at 1 mg/kg, iv administered as 30 mins infusion by LC-MS/MS analysis
Format: ADME, organism-based
Property: clearance; scope: individual compounds
Please give the number followed by its unit.

CNS(=O)(=O)c1ccc(OCC(F)(F)F)c(Nc2cc(Nc3ccc(Cl)cn3)ncn2)c1; 7.4 mL/min/kg
CNS(=O)(=O)c1ccc(Cl)c(Nc2cc(Nc3ccc(Cl)cc3)ncn2)c1; 14 mL/min/kg
CNS(=O)(=O)c1cccc(Nc2cc(Nc3ccc(Cl)cc3)ncn2)c1; 23 mL/min/kg
CNS(=O)(=O)c1cccc(Nc2cc(Nc3cccc(Br)c3)ncn2)c1; 53 mL/min/kg

Next, consider the following compound.
Please give the measured clearance for this compound: CNS(=O)(=O)c1ccc(OC(F)(F)F)c(Nc2cc(Nc3ccc(Cl)cc3)ncn2)c1
16 mL/min/kg

----------
Biological target: Serine/threonine-protein kinase TNNI3K (Homo sapiens, UniProt Q59H18)
Sequence (Q59H18 whole entry, the tested form may be a part): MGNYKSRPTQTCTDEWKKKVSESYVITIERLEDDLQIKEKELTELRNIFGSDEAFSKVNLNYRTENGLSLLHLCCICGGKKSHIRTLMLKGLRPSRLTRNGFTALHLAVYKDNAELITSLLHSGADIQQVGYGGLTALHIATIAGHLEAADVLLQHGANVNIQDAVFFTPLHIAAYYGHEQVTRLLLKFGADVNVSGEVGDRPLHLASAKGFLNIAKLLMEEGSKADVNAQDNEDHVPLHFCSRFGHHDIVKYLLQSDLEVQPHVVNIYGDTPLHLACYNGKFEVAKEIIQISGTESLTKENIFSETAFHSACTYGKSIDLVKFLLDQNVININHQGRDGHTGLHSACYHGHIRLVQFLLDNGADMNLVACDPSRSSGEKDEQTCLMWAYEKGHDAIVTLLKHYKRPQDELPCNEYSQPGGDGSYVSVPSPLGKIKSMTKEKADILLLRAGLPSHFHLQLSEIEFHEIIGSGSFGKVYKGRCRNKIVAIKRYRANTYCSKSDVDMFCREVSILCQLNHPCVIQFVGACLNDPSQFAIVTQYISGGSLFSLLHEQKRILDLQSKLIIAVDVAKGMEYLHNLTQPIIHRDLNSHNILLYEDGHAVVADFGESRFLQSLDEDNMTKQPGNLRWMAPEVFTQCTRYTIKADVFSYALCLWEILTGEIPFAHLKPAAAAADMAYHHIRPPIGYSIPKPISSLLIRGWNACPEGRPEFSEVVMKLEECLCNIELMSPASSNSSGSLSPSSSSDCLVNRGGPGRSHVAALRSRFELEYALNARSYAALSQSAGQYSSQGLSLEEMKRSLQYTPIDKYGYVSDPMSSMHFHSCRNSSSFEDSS
Test: Inhibition of human Myc-tagged TNNI3K autophosphorylation expressed in HEKMSR2 cells after 30 mins by DELFIA
Format: cell-based
PARAMETER: IC50 (nM)
Respond numerically; units are nM and should not be typed.

CCS(=O)(=O)c1ccc(S(=O)(=O)NC)cc1Nc1cc(Nc2ccc(Cl)cn2)ncn1; 8

Please give the measured IC50 for this molecule: CNS(=O)(=O)c1cccc(Nc2cc(Nc3cccc([N+](=O)[O-])c3)ncn2)c1
500

Please give the measured IC50 for this molecule: CNS(=O)(=O)c1ccc(OC(F)(F)F)c(Nc2cc(Nc3ccc(Cl)cn3)ncn2)c1
63

Please give the measured IC50 for this molecule: CNS(=O)(=O)c1ccc(OC(F)(F)F)c(Nc2cc(Nc3ccc(Cl)cc3)ncn2)c1
320

----------
Target: Serine/threonine-protein kinase B-raf (Homo sapiens, UniProt P15056)
Sequence (P15056 whole entry): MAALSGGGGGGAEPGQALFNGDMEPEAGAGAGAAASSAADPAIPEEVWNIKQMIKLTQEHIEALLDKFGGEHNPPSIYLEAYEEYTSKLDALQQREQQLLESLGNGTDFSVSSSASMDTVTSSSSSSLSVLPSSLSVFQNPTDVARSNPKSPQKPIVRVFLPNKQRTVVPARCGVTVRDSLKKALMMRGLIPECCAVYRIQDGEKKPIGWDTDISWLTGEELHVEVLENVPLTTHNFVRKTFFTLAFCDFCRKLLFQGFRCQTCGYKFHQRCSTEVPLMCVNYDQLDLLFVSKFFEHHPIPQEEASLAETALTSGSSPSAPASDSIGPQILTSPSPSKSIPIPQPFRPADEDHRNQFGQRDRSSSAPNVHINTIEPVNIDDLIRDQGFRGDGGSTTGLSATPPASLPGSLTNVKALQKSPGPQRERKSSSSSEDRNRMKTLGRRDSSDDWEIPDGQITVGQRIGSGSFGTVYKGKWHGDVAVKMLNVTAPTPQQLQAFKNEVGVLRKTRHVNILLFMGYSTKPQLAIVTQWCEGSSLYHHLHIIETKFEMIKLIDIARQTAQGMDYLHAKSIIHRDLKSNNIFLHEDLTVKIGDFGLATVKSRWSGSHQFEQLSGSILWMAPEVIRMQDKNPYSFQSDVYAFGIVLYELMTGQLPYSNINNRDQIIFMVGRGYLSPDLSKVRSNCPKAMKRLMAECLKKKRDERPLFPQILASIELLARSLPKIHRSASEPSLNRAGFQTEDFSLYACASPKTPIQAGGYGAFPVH
Assay: Inhibition of full length His6-tagged BRAF (unknown origin) expressed in baculovirus expression system assessed as reduction in MEK phosphorylation by measuring ADP production by BRAMA
Property: IC50; scope: individual compounds
Respond numerically; units are µM and should not be typed.

Below are worked cases with known answers.
CNS(=O)(=O)c1ccc(S(C)(=O)=O)c(Nc2cc(Nc3ccc(Cl)cn3)ncn2)c1; 0.2
CCS(=O)(=O)c1ccc(S(=O)(=O)NC)cc1Nc1cc(Nc2ccc(Cl)cn2)ncn1; 0.25
CNS(=O)(=O)c1ccc(S(=O)(=O)C(C)C)c(Nc2cc(Nc3ccc(Cl)cn3)ncn2)c1; 0.5
CNS(=O)(=O)c1ccc(S(=O)(=O)C(C)(C)C)c(Nc2cc(Nc3ccc(Cl)cn3)ncn2)c1; 2
CNS(=O)(=O)c1ccc(OC)c(Nc2cc(Nc3ccc(Cl)cn3)ncn2)c1; 0.02

Next, consider the following compound.
Please give the measured IC50 for this compound: CNS(=O)(=O)c1ccc(OCC(F)(F)F)c(Nc2cc(Nc3ccc(Cl)cn3)ncn2)c1
0.013

----------
Test system: Rattus norvegicus
Test: Dose normalized AUC in Sprague-Dawley rat plasma at 2 mg/kg, po administered as gastric bolus dose by LC-MS/MS analysis
Assay type: ADME, organism-based
Conditions: in vivo
Everything with AUC/dose lower than 0.1 kg·h/L is n; everything else, including exactly 0.1 kg·h/L, is y.

CNS(=O)(=O)c1cccc(Nc2cc(Nc3cccc(Cl)c3)ncn2)c1; n
CNS(=O)(=O)c1ccc(OC)c(Nc2cc(Nc3ccc(Cl)cn3)ncn2)c1; y

Given CNS(=O)(=O)c1ccc(F)c(Nc2cc(Nc3ccc(Cl)cc3)ncn2)c1 , state whether its AUC/dose is at least 0.1 kg·h/L.
y

Given CNS(=O)(=O)c1ccc(S(=O)(=O)C(C)(C)C)c(Nc2cc(Nc3ccc(Cl)cn3)ncn2)c1 , state whether its AUC/dose is at least 0.1 kg·h/L.
n

Given CNS(=O)(=O)c1ccc(S(=O)(=O)C(C)C)c(Nc2cc(Nc3ccc(Cl)cn3)ncn2)c1 , state whether its AUC/dose is at least 0.1 kg·h/L.
y

----------
Test system: Blood
Assay: Unbound drug level in mouse blood at 100 mg/kg/day administered through diet
Format: ADME, organism-based
Conditions: in vivo
PARAMETER: Drug uptake(free)

Please give the measured Drug uptake(free) for this compound: CCS(=O)(=O)c1ccc(S(=O)(=O)NC)cc1Nc1cc(Nc2ccc(Cl)cn2)ncn1
14 to 56 nM
